- System: JCK
- test_method_notes: qHTS profiling for inhibitors of Plasmodium falciparum proliferation (AID 504749); note: nearly all actives have a fitted effect of over 60% in size
- measurement_conditions: P. falciparum in erythrocytes, SYBR Green DNA, 72 h; series mostly up to 28.7 µM
Records with an inconclusive call do not appear. Calls of active or inactive are those of the source. Calls come from the whole dose curve; as a rule, active = well fitted inhibition curve with a large enough effect; inconclusive = small, poorly fitted or top-dose-only effect; inactive = flat fitted curve, though single readings scatter.
Response enum: active, inactive

Worked examples follow.
{"compound": "O=C1c2cccc(O)c2C(=O)c2c(O)cccc21", "group": "inactive"}
{"compound": "CC(C)=CCC/C(C)=C/CO", "group": "inactive"}
{"compound": "C[C@@H]1O[C@@H](OC[C@H]2O[C@@H](Oc3c(-c4ccc(O)c(O)c4)oc4cc(O)cc(O)c4c3=O)[C@H](O)[C@@H](O)[C@@H]2O)[C@H](O)[C@H](O)[C@H]1O", "group": "inactive"}
{"compound": "CCCCCCCC(=O)OCC(O)CO (stereo not given)", "group": "inactive"}
{"compound": "C=CCNC(N)=S", "group": "inactive"}

Input line: What call does the record list for NC(=O)c1ccc([N+](=O)[O-])cc1Cl ?
Output line: inactive

Input line: // return assay outcome for CCCCC1(COC(=O)CCC(=O)O)C(=O)N(c2ccccc2)N(c2ccccc2)C1=O
Output line: inactive

Input line: # fetch the recorded call for CC(C)CCCC(C)CCCC(C)CCCCC(C)CCCC(C)CCCC(C)C (stereo not given) here
Output line: inactive

Input line: Assay result, entry COc1ccc(NS(=O)(=O)c2ccc(N)cc2)nn1 — outcome?
Output line: inactive

====

- Tested on: CP291
- test_method_notes: qHTS profiling for inhibitors of Plasmodium falciparum proliferation (AID 504749); note: nearly all actives have a fitted effect of over 60% in size
- measurement_conditions: P. falciparum in erythrocytes, SYBR Green DNA, 72 h; series mostly up to 28.7 µM
Records with an inconclusive call do not appear. Active and inactive are the calls of the source. Calls come from the whole dose curve; as a rule, active = well fitted inhibition curve with a large enough effect; inconclusive = small, poorly fitted or top-dose-only effect; inactive = flat fitted curve, though single readings scatter.
endpoint_label: outcome

Guide cases for outcome, answers given:
{"molecule": "NNC(=O)CP(=O)(c1ccccc1)c1ccccc1", "outcome": "inactive"}
{"molecule": "CCCCCCCCCCCCCCCCCCO", "outcome": "inactive"}
{"molecule": "Cn1c([N+](=O)[O-])cnc1COC(N)=O", "outcome": "inactive"}
{"molecule": "Cc1cc(-n2nc3ccc(Cl)cc3n2)c(O)c(C(C)(C)C)c1", "outcome": "inactive"}

Input line: Assign outcome to the following record: O=C(O)c1ccccc1C(=O)Nc1ccc(S(=O)(=O)Nc2nccs2)cc1
Output line: inactive

Input line: // Input: CC(=O)NCc1c(I)c(NC(C)=O)c(I)c(C(=O)O)c1I . Output its outcome only.
Output line: inactive

Input line: In one line, give reported outcome of the entry CCCCCCCCCCCCCCCCN .
Output line: inactive

Input line: Report outcome, nothing else, for this molecule: CCCCCCCCCCCCCCCCC(C(=O)O)C(O)(CC(=O)O)C(=O)O (stereo not drawn)
Output line: inactive

Input line: Report outcome, nothing else, for this molecule: CC(=O)N[C@@H](Cc1ccc(O)cc1)C(=O)O
Output line: inactive

====

- Test system: N140
- test_method_notes: qHTS profiling for inhibitors of Plasmodium falciparum proliferation (AID 504749); note: nearly all actives have a fitted effect of over 60% in size
- measurement_conditions: P. falciparum in erythrocytes, SYBR Green DNA, 72 h; series mostly up to 28.7 µM
Records with an inconclusive call do not appear. Active and inactive are the calls of the source. Calls come from the whole dose curve; as a rule, active = well fitted inhibition curve with a large enough effect; inconclusive = small, poorly fitted or top-dose-only effect; inactive = flat fitted curve, though single readings scatter.
Result category, one only: active, inactive

Worked set:
{"compound": "CN(C(=O)c1c(O)c2ccccc2n(C)c1=O)c1ccccc1", "system_name": "N140", "group": "inactive"}
{"compound": "O=C1CC[C@@H](C(=O)O)N1", "system_name": "N140", "group": "inactive"}

Input line: Entry CCOC(N)=O : call = ?
Output line: inactive
